B1: LPCAT4 (parent)
chain: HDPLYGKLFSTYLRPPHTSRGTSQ

- Variants of: B1
- protocol-text: protein stability index of a GFP-peptide fusion (GPS, HEK-293T) (PSI 1-6); higher = more stable;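 further: lentivirally expressed fusions sorted by FACS into six bins by GFP to DsRed ratio, PSI derived from sequencing read proportions per bin multiplied by bin number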
- experimental-setup: c terminus: a fixed tail appended
Kindly state protein stability index for each of the entries shown.
One number for each entry.

Record excerpt, results attached:
S10A; 2.96
L8C; 4.01
L13F; 3.21
D2Q; 2.44
P16N; 2.94

Below are 4 variants. Give each one its protein stability index.
1. K7P
2. G21N
3. H17G
4. S10G

1. 2.36
2. 2.42
3. 2.25
4. 3.34
